Assay: PSAC antagonists in infected red cells, primary screen, cell-based, P. falciparum Indochina, OD700, 2 h (AID 1155);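 also: lysis reports solute entry through the parasite surface anion channel PSAC; channel blockers reduce lysis of infected cells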
Details: P. falciparum Indochina infected erythrocytes, osmotic lysis OD700; higher = more signal, called active from +8 up or from −8 down
Kindly return Condition met if reported z-score is no lower than 0.5; return Condition not met if it is lower.

Molecule	Assigned class
O=C(CCN1CCOCC1)c1cccc(O)c1	Condition not met
O=C1N(CCS(=O)(=O)c2ccccc2)c2ccccc2C[C@@]12COC(c1ccc(OCCCO)cc1)=N2	Condition met
COC(=O)[C@@]1(Cc2ccccc2)[C@H]2c3cc(C(=O)N4CCCC4)n(C)c3C[C@H]2CN1C(=O)c1ccccc1	Condition not met
N#Cc1ccc(NN2C(C(O)c3cccs3)C=CC3C(=O)N(c4ccccc4)C(=O)C32)cc1 (stereo not drawn)	Condition not met
[N-]=[N+]=NCc1ccccc1C[C@]1(C(=O)NCCN2CCOCC2)N=C(c2ccc(OCCCO)cc2)O[C@H]1c1ccccc1N=[N+]=[N-]	Condition met
COc1ccc(CCNC(=O)[C@@H]2c3ccccc3C(=O)N(Cc3ccc(OC(F)(F)F)cc3)[C@H]2c2ccc(CO)cc2)cc1	Condition not met
CCOC(=O)C1=CC[C@@H](c2ccccc2)N(S(=O)(=O)c2ccc(C)cc2)[C@H]1C(=O)OCC	Condition met
COC(=O)[C@@]1(Cc2ccc(OC)cc2)[C@H]2c3cc(C(=O)N4CCCC4)n(Cc4ccccn4)c3C[C@H]2CN1C(=O)c1ccccc1	Condition met
COCCOC(=O)N1C(=O)[C@@]2(c3cc(C#CCNC(N)=O)ccc31)[C@H](c1ccccc1OCCO)N1[C@H](c3ccccc3)[C@H](c3ccccc3)OC(=O)[C@H]1[C@@H]2C(N)=O	Condition met
COc1ccc([Si](C)(C)[C@@H]2[C@@H](CC(=O)N3CCC[C@H]3CO)O[C@]3(C(=O)N(C)c4c(Br)cc(C)cc43)[C@H]2C)cc1	Condition met
[N-]=[N+]=Nc1ccccc1[C@H]1OC(c2ccc(OCCCO)cc2)=N[C@@]1(CCS(=O)(=O)c1ccccc1)C(=O)O	Condition met
COc1ccc(C(O)C2C=CC3C(=O)NC(=O)C3N2Nc2ccccn2)cc1OCc1ccccc1 (stereo not drawn)	Condition not met
O=C(CS)NCCCCCCNC(=O)[C@H]1C[C@H]2C(=O)NCC(=O)N2[C@H]1c1ccc(O)cc1	Condition not met
COCCOC(=O)N1C(=O)[C@@]2(c3cc(C#Cc4ccc(OC)cc4)ccc31)[C@H](C(=O)N1CCN(c3ncccn3)CC1)[C@H]1C(=O)O[C@H](c3ccccc3)[C@H](c3ccccc3)N1[C@@H]2c1ccc(O)cc1	Condition not met
COc1cc(CO)ccc1OC(C)=O	Condition not met
C=CCOC(=O)[C@H]1[C@@H]2C(=O)O[C@@H](c3ccccc3)[C@@H](c3ccccc3)N2[C@@H](c2ccc(OCCOC(=O)[C@@H]3C[C@@H]4C(=O)NCC(=O)N4[C@@H]3c3ccc(O)cc3)cc2)[C@]12C(=O)Nc1ccccc12	Condition not met
C=CCC(OC(C)=O)[C@@H]1[C@@H](N(Cc2cc3ccccc3o2)C(=O)c2ccc(C)cc2)c2cc(OCCCO)ccc2N1C(=O)c1ccc2ccccc2c1 (stereo partly drawn)	Condition not met
COC(=O)[C@@]1(Cc2ccccc2)N=C(c2ccc(OCCCO)cc2)O[C@H]1c1ccccc1N=[N+]=[N-]	Condition met
CC(C)(C)N1CC=CC23O[C@@H]4/C=C\CCCOC(=O)C4[C@H]2C(=O)N(CCO)[C@@H]3C1=O (stereo partly drawn)	Condition met
O=C/C=C/c1ccc2c(c1)OCO2	Condition not met
COCCOC(=O)N1C(=O)[C@@]2(c3cc(C#CCC(C(=O)OC)C(=O)OC)ccc31)[C@H](C(=O)N1CCCCCCC1)[C@H]1C(=O)O[C@H](c3ccccc3)[C@H](c3ccccc3)N1[C@@H]2c1ccc(OCCO)cc1	Condition met
CCOc1cc(C(O)C2C=CC3C(=O)N(c4ccccc4)C(=O)C3N2Nc2ccc([N+](=O)[O-])cc2)ccc1O (stereo not drawn)	Condition met
CCCNC(=O)[C@@]1(c2ccc([N+](=O)[O-])cc2)CC(=O)N(CC23CC4CC(CC(C4)C2)C3)[C@@H]1c1ccc(CO)cc1	Condition met
CCOC(=O)C[C@H]1[C@H](OC(=O)c2ccc(-c3ccccc3)cc2)[C@@H](NC(=O)c2ccc(-c3ccccc3)cc2)c2cc(OCCCO)ccc2N1C(=O)Cc1ccc(OC)cc1	Condition met
NC(=O)NCC#Cc1ccc2c(c1)[C@]1(C(=O)N2)[C@H](C(=O)N2CCCCCCC2)[C@H]2C(=O)O[C@H](c3ccccc3)[C@H](c3ccccc3)N2[C@@H]1c1ccc(OCCO)cc1	Condition met
C=CCOC(=O)[C@H]1[C@@H]2C(=O)O[C@@H](c3ccccc3)[C@@H](c3ccccc3)N2[C@@H](c2ccc(OCCOC(=O)[C@@H]3C[C@@H]4C(=O)N5CCC[C@H]5C(=O)N4[C@@H]3c3ccc(O)cc3)cc2)[C@]12C(=O)Nc1ccccc12	Condition met
CCCCC(O)C1C=CC2C(=O)N(C3CCCCC3)C(=O)C2N1Nc1ccc(OC)cc1 (stereo not drawn)	Condition met
CCCCCN1CC=CC23O[C@@H]4/C=C\CCCOC(=O)C4[C@H]2C(=O)N(CCCCCCO)[C@@H]3C1=O (stereo partly drawn)	Condition met
